Tested on: Aβ42 in CHO-2B7 cells (CHO cells stably overexpressing APP695)
Experiment notes: Cell-based Aβ sandwich ELISA of conditioned media from CHO-2B7 cells treated 16 h
Design: species or system Chinese hamster
Run parameters: Cricetulus griseus, CHO-2B7, 16 h, lowering Aβ42, CHO-2B7 cells, 16 h, ELISA
Measurement label: pEC50
Lab note — pEC50 values are minus log10 of concentrations in M.

These recorded examples may help you get a feel for the data.
| Compound | Target under test | pEC50 |
| --- | --- | --- |
| CC(CCCC(C)C1CCC2C3C(O)C=C4CC(O)CCC4(C)C3CCC12C)C(=O)O (stereo not drawn) [7α-OH-CA, 7α-hydroxy-cholestenoic acid] | Aβ42 in CHO-2B7 cells (CHO cells stably overexpressing APP695) | 6.01 |
| CC(C)CC(c1ccc(Cl)cc1)N1CC[C@@H](CC(=O)O)C[C@H]1c1ccc(C(F)(F)F)cc1 (stereo partly shown) [Cmpd 4, reference compound] | Aβ42 in CHO-2B7 cells (CHO cells stably overexpressing APP695) | 7.04 |

Please look at the following compound next.
// returns pEC50 for CC(CCCC(C)C1CCC2C3C(O)CC4=CC(=O)CCC4(C)C3CCC12C)C(=O)O (stereo not drawn) [7α-OH-4-CA, 7α-hydroxy-4-oxo-cholestenoic acid] with Aβ42 in CHO-2B7 cells (CHO cells stably overexpressing APP695); value = 5.38
